Value source: ChEMBL document CHEMBL5154756

Experiment: Selectivity ratio of IC50 for human Hep3B cells to IC50 for human MCF7 cells
Type: functional
Some compounds, each annotated with its measured Ratio IC50.
// print number alone

Guide cases for Ratio IC50, answers given:
Name the reported Ratio IC50 value associated with the compound COc1cc2c(c(OC)c1OC)-c1ccc(OC)c(=O)cc1[C@@H](NC(=O)COCC(=O)OC[C@H]1OC(O)[C@@H](O)[C@@H](O)[C@@H]1O)CC2 (stereo partly drawn)
2.92

Item COc1cc2c(c(OC)c1OC)-c1ccc(OC)c(=O)cc1[C@@H](NC(=O)CCCC(=O)O[C@H]1[C@H](O)[C@@H](CO)OC(O)[C@@H]1O)CC2 (stereo partly drawn) has what recorded Ratio IC50?
1.24

Please report the recorded Ratio IC50 for COc1cc2c(c(OC)c1OC)-c1ccc(OC)c(=O)cc1[C@@H](NC(=O)CSCC(=O)OC[C@H]1OC(O)[C@H](O)[C@@H](O)[C@@H]1O)CC2 (stereo partly drawn) .
2.6

More entries:
Consider the compound COc1cc2c(c(OC)c1OC)-c1ccc(OC)c(=O)cc1[C@@H](NC(=O)CCC(=O)OC[C@H]1OC(O)[C@@H](O)[C@@H](O)[C@@H]1O)CC2 (stereo partly drawn) and give its measured Ratio IC50.
4.34

Sample COc1cc2c(c(OC)c1OC)-c1ccc(OC)c(=O)cc1[C@@H](NC(=O)CCC(=O)OC[C@H]1OC(O)[C@H](O)[C@@H](O)[C@@H]1O)CC2 (stereo partly drawn) — what was its Ratio IC50?
5.52

Form field: reported Ratio IC50 of COc1cc2c(c(OC)c1OC)-c1ccc(OC)c(=O)cc1[C@@H](NC(=O)CSCC(=O)O[C@H]1[C@H](O)[C@@H](CO)OC(O)[C@@H]1O)CC2 (stereo partly drawn)
13.17

Please report the recorded Ratio IC50 for COc1cc2c(c(OC)c1OC)-c1ccc(OC)c(=O)cc1[C@@H](NC(=O)CCC(=O)O[C@H]1[C@H](O)[C@@H](CO)OC(O)[C@@H]1O)CC2 (stereo partly drawn) .
9.25

Look at this compound and give its reported Ratio IC50. COc1cc2c(c(OC)c1OC)-c1ccc(OC)c(=O)cc1[C@@H](NC(=O)COCC(=O)OC[C@H]1OC(O)[C@H](O)[C@@H](O)[C@@H]1O)CC2 (stereo partly drawn)
1.48
